Cited source: patent US10081609B2

- procedure-summary: Protein binding - Human
- Format: in vitro ADME
result-type: Protein binding Rep2 (% bound)
A number alone suffices; assume % bound.

[ask] Which Protein binding Rep2 is listed for CCCCOc1cc(CC2CNC(=O)N2)ccc1OC (stereo not shown) [BRD-A07207424-001-04-1] ?
[reply] 75.0

[ask] Lookup C[C@H](CO)N1C[C@H](C)[C@H](CN(C)C(=O)Nc2ccc(F)cc2)Oc2ncc(C#Cc3ccc(F)cc3)cc2C1=O [Compound 107]
[reply] 99.5

[ask] Repeat with Cc1ccc(Cl)cc1N(CC(=O)N(S)c1c(F)cccc1F)S(C)(=O)=O [BRD-K61250484-001-01-5]
[reply] 91.6

[ask] Similarly, C[C@H]1CN([C@@H](C)CO)C(=O)CCCn2cc(nn2)CO[C@H]1CN(C)C(=O)C1CC1 [Compound 108] ?
[reply] 12.1

[ask] Field entry: CCn1cc(NC(=S)Nc2cc(Cl)ccc2OC)c(C(N)=O)n1 [BRD-K94248251]
[reply] 95.9

[ask] Next up: C[C@H](CO)N1C[C@H](C)[C@H](CN(C)C(=O)Nc2ccc(F)cc2)Oc2ncc(-c3cc4ccccc4o3)cc2C1=O [Compound 106]
[reply] 99.3

[ask] Would you kindly repeat that for CC(=O)Nc1ccc(Cc2ccc(NC(C)=O)cc2)cc1 [BRD-K44777625-001-01-9] ?
[reply] 91.0

###

- procedure-summary: Solubility in PBS with 1% DMSO
- Type: physicochemical
- stated-conditions: aqueous buffer, kinetic from dmso stock, read-out: Solubility Rep2
result-type: solubility

[ask] # lookup: solubility of CCn1cc(NC(=S)Nc2cc(Cl)ccc2OC)c(C(N)=O)n1
[reply] 16 µM

[ask] Query CCCCOc1cc(CC2CNC(=O)N2)ccc1OC (centres unmarked) next
[reply] 114 µM

[ask] Item: C[C@H](CO)N1C[C@H](C)[C@H](CN(C)C(=O)Nc2ccc(F)cc2)Oc2ncc(-c3cc4ccccc4o3)cc2C1=O
[reply] 28 µM

[ask] Next entry: Clc1ccccc1C(c1ccccc1)(c1ccccc1)n1ccnc1 [Clotrimazole, reference compound]
[reply] 1.9 µM

[ask] Then this compound: CC(=O)Nc1ccc(Cc2ccc(NC(C)=O)cc2)cc1
[reply] 39 µM

[ask] Entry to check: Cc1ccc(Cl)cc1N(CC(=O)N(S)c1c(F)cccc1F)S(C)(=O)=O
[reply] 22 µM

[ask] Follow-up item: C[C@H]1CN([C@@H](C)CO)C(=O)CCCn2cc(nn2)CO[C@H]1CN(C)C(=O)C1CC1
[reply] > 100 µM

[ask] Also C[C@H](CO)N1C[C@H](C)[C@H](CN(C)C(=O)Nc2ccc(F)cc2)Oc2ncc(C#Cc3ccc(F)cc3)cc2C1=O ?
[reply] 47 µM

###

Please go through the items and note down their Protein binding Average.
- procedure-summary: Protein binding - Human
- Format: in vitro ADME
Provide only the numeric value, understood in % bound.

[ask] Would you kindly share the measured Protein binding Average for CCn1cc(NC(=S)Nc2cc(Cl)ccc2OC)c(C(N)=O)n1 [BRD-K94248251] ?
[reply] 95.8

[ask] Moving on to C[C@H](CO)N1C[C@H](C)[C@H](CN(C)C(=O)Nc2ccc(F)cc2)Oc2ncc(C#Cc3ccc(F)cc3)cc2C1=O [Compound 107]
[reply] 99.5

[ask] Try this compound too: C[C@H]1CN([C@@H](C)CO)C(=O)CCCn2cc(nn2)CO[C@H]1CN(C)C(=O)C1CC1 [Compound 108]
[reply] 12.0

[ask] Ok, now C[C@H](CO)N1C[C@H](C)[C@H](CN(C)C(=O)Nc2ccc(F)cc2)Oc2ncc(-c3cc4ccccc4o3)cc2C1=O [Compound 106]
[reply] 99.3

[ask] Repeat with CC(=O)Nc1ccc(Cc2ccc(NC(C)=O)cc2)cc1 [BRD-K44777625-001-01-9]
[reply] 91.0

[ask] Subsequent entry: Cc1ccc(Cl)cc1N(CC(=O)N(S)c1c(F)cccc1F)S(C)(=O)=O [BRD-K61250484-001-01-5]
[reply] 91.2

[ask] Moving on to CCCCOc1cc(CC2CNC(=O)N2)ccc1OC (stereo not shown) [BRD-A07207424-001-04-1]
[reply] 75.6

###

- procedure-summary: Solubility in PBS with 1% DMSO
- Assay type: physicochemical
- stated-conditions: aqueous buffer, kinetic from dmso stock, read-out: Solubility Average
result-type: solubility (µM)
Field format: number, assumed µM, no unit text.

[ask] Quick check: solubility of Cc1ccc(Cl)cc1N(CC(=O)N(S)c1c(F)cccc1F)S(C)(=O)=O ?
[reply] 23

[ask] Also check CCn1cc(NC(=S)Nc2cc(Cl)ccc2OC)c(C(N)=O)n1
[reply] 20

[ask] Subsequent entry: CC(=O)Nc1ccc(Cc2ccc(NC(C)=O)cc2)cc1
[reply] 40

[ask] Please answer likewise for Clc1ccccc1C(c1ccccc1)(c1ccccc1)n1ccnc1 [Clotrimazole, reference compound]
[reply] 2.2

[ask] Moving on to the next molecule: C[C@H](CO)N1C[C@H](C)[C@H](CN(C)C(=O)Nc2ccc(F)cc2)Oc2ncc(C#Cc3ccc(F)cc3)cc2C1=O
[reply] 41

[ask] Repeat with C[C@H](CO)N1C[C@H](C)[C@H](CN(C)C(=O)Nc2ccc(F)cc2)Oc2ncc(-c3cc4ccccc4o3)cc2C1=O
[reply] 25

###

Exercise: state measured Microsomal stability No NADPH for each of the compounds provided.
- procedure-summary: Microsomal stability - Human; also: time not given here
- Format: in vitro ADME
- stated-conditions: No NADPH, non-enzymatic microsomal mechanisms only
Dear colleague, please return just the value in % remaining, with no unit written.

[ask] Query: Microsomal stability No NADPH; subject: C[C@H]1CN([C@@H](C)CO)C(=O)CCCn2cc(nn2)CO[C@H]1CN(C)C(=O)C1CC1 [Compound 108]
[reply] 102.3

[ask] Now try CCn1cc(NC(=S)Nc2cc(Cl)ccc2OC)c(C(N)=O)n1 [BRD-K94248251] .
[reply] 123.1

[ask] Now the same for CC(=O)Nc1ccc(Cc2ccc(NC(C)=O)cc2)cc1 [BRD-K44777625-001-01-9]
[reply] 63

[ask] // next record C[C@H](CO)N1C[C@H](C)[C@H](CN(C)C(=O)Nc2ccc(F)cc2)Oc2ncc(-c3cc4ccccc4o3)cc2C1=O [Compound 106]
[reply] 104.2

[ask] Again, but for Cc1ccc(Cl)cc1N(CC(=O)N(S)c1c(F)cccc1F)S(C)(=O)=O [BRD-K61250484-001-01-5]
[reply] 110.6

[ask] Proceed to CCCCOc1cc(CC2CNC(=O)N2)ccc1OC (stereo not shown) [BRD-A07207424-001-04-1]
[reply] 100.3

[ask] Another compound to check: C[C@H](CO)N1C[C@H](C)[C@H](CN(C)C(=O)Nc2ccc(F)cc2)Oc2ncc(C#Cc3ccc(F)cc3)cc2C1=O [Compound 107]
[reply] 94.4

###

- procedure-summary: Microsomal stability - Human; also: time not given here
- Assay type: in vitro ADME
- stated-conditions: enzymatic and non-enzymatic microsomal mechanisms
result-type: Microsomal stability Average (% remaining)
Your answer should be a plain number; it is taken to be in % remaining.

[ask] Please look up its Microsomal stability Average: CCn1cc(NC(=S)Nc2cc(Cl)ccc2OC)c(C(N)=O)n1
[reply] 40.6

[ask] How about CC(=O)Nc1ccc(Cc2ccc(NC(C)=O)cc2)cc1 ?
[reply] 68.9

[ask] Query C[C@H]1CN([C@@H](C)CO)C(=O)CCCn2cc(nn2)CO[C@H]1CN(C)C(=O)C1CC1 next
[reply] 97.4

[ask] Another molecule to look at: Cc1ccc(Cl)cc1N(CC(=O)N(S)c1c(F)cccc1F)S(C)(=O)=O
[reply] 4.4

[ask] Also CCCCOc1cc(CC2CNC(=O)N2)ccc1OC (stereo not shown) ?
[reply] 83.5

[ask] Try the molecule C[C@H](CO)N1C[C@H](C)[C@H](CN(C)C(=O)Nc2ccc(F)cc2)Oc2ncc(C#Cc3ccc(F)cc3)cc2C1=O
[reply] 55.8

[ask] Also, C[C@H](CO)N1C[C@H](C)[C@H](CN(C)C(=O)Nc2ccc(F)cc2)Oc2ncc(-c3cc4ccccc4o3)cc2C1=O please.
[reply] 56.0

###

- procedure-summary: Microsomal stability - Human; also: time not given here
- Assay type: in vitro ADME
- Procedure: Selected compounds of the invention were evaluated for physico-chemical properties, including solubility, microsomal stability, protein binding and plasma stability (Table 2). Selected compounds of the invention were evaluated for physico-chemical properties, including solubility, microsomal stability, protein binding and plasma stability (Table 3).
result-type: Microsomal stability Rep1 (% remaining)
API: value field is a number in % remaining; no unit string.

[ask] Entry C[C@H]1CN([C@@H](C)CO)C(=O)CCCn2cc(nn2)CO[C@H]1CN(C)C(=O)C1CC1 has what Microsomal stability Rep1?
[reply] 99.4

[ask] Next entry: CCn1cc(NC(=S)Nc2cc(Cl)ccc2OC)c(C(N)=O)n1
[reply] 41.7

[ask] Input CC(=O)Nc1ccc(Cc2ccc(NC(C)=O)cc2)cc1
[reply] 71
